Cited source: patent US20220144922A1

Each item that follows carries a reported Neut IC50 (ug/ml) subtype B.
target: RSV F protein of subtype B strain 18537, on virus (respiratory syncytial virus subtype B …, UniProt P13843 26-574); assay: cell-based or functional assay
Sequence (P13843 26-574): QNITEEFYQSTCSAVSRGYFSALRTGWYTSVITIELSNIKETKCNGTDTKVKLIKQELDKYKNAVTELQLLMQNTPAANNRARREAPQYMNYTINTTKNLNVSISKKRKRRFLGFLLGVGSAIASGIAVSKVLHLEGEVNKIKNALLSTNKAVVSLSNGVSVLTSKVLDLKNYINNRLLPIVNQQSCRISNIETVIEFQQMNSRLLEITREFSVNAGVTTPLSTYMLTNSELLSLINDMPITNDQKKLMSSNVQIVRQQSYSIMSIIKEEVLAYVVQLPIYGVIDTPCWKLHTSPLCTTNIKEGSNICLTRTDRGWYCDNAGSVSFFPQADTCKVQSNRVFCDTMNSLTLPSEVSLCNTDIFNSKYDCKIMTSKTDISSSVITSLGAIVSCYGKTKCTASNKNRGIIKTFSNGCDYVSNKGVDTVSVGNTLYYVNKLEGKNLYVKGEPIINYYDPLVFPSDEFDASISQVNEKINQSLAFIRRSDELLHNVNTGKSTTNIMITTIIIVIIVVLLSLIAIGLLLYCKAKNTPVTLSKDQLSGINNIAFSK
Field format: number, assumed µg/mL, no unit text.

Below, each entry is followed by its recorded Neut IC50 (ug/ml) subtype B result.
• ADI-15586 (antibody, V domains shown, IgG; also called Antibody Number 153) VH: EVQLVESGGGVVQPGKSLRLSCAASGFIFSGYGMHWVRQAPGKGLEWVAFIWFDGSSTYYADSVKGRFTISKDDSKQTVYLQMNRLRAEDTAVYYCARDPLFLYNYNDEPFDYWGQGTLVTVSS VL: SYELTQPPSASGSPGQSVTISCSGSSSNIGGNFVYWYQQLPGTAPKVLIYRNNQRPSGVPDRFSGSKSGTSASLAISGLRSDDEADYYCSVWDDSLNGRLFGGGTKLTVL = 1.02
• ADI-15630 (antibody, V domains shown) VH: QVQLVQSGGGLVKPGGSLRLSCAASGFIFSDYYMVWIRQAPGKGLEWVSYISSSSRYINYADSVKGRFTISRDNAKNSLFLQMNTVRAEDTAVYYCAQGWYSDFWSGPIRIWGQGTLVTVSS VL: DIQLTQSPSSLSASVGDRVTITCQASQDISNSLNWFQQKPGKAPKLLIFDAYNLETGVPSRFSGSGSGTDFTLTISSLQPEDIATYYCQQNDNLVLTFGGGTKLEIK = 6.64

Requested read-out: Neut IC50 (ug/ml) subtype B. Entry: ADI-15617 (antibody, V domains shown, IgG; also called Antibody Number 182) VH: EVQLVESGGGLVQPGGSLRISCAASGFSISSHAVSWVRQAPGKGLEWVSVISGSGGDTHSVVQGRGSGTYYADSVKGRFTISRDNVRNTVYLQMNSLRVEDTAVYYCAKDDPTLFWSGSGYYGMDVWGQGTTVTVSS VL: DIRVTQSPSSLSASVGDRVTITCQASQGISDSLNWYQQKPGKAPKLLIYGASKLEPGVSSRFSGRGSGRDFTFTISSLQPEDIGTYYCQQYDNLPLTFGPGTKLEIK
0.038

Can you check ADI-15589 (antibody, V domains shown) VH: QVQLQQWGAGLLKPSETLSLTCAVYGGSFSGYYWGWIRQPPGKGLEWIGEVNHSGTSNYNPSLTSRVTISVDPSKKQLSLKLNSVTAADTAVYYCARAPWYTHAMDVWGQGTTVTVSS VL: QSVLTQPASVSGSPGQSITISCTRTSSDVGAYSYVSWYQQHPGKAPKLMIYDVNNRPSGVSNRFSGSKSGNTASLTISGLQAEDEADYYCSSYTNSNTLGVFGGGTKLTVL next?
18.5

Can you check ADI-15563 (antibody, V domains shown, IgG) VH: EVQLVESGGGLVQPGRSLRLSCAASGFTFDDYAMHWVRQAPGKGLEWVSGISWNSGIVKYADSVKGRFTISRDNAKNSLYLQMNSLRTEDTALYYCVKDGYTSSWHSDYHYGLDVWGQGTTVTVSS VL: DIVMTQSPATLSLSPGDRATLSCRASQNVISNLAWYQQKPGQAPRLLIYTVSTRATGIPARFSGSGSGTDFTLTISSLQSEDFAVYYCQQYNNWPLTFGGGTKVEIK next?
0.047

Can you check ADI-15656 (antibody, V domains shown, IgG; also called Antibody Number 220) VH: QVQLVQSGAEVKKPGASVKVSCKASGYTFTDYYMHWVRQAPGQGLEWVGWINPNSGSTNYAQKFQGRVTVTRDTSISTAYMDLSRLRSDDTAVYYCASRSWDHDAFDIWGQGTMVTVSS VL: QSVLTQPPSVSGAPGQRVTISCTGSSSNIGAGYDVHWYQQLPGRAPKLLIFGNSNRPSGVPDRFSGSKSGTSASLAITGLQPEDEADYYCHCYDSRLSVVFGGGTKLTVL next?
0.021

Can you check ADI-15561 (antibody, V domains shown, IgG; also called Antibody Number 132) VH: QVQLVQSGAEVKKPGSSVKVSCKASGGTFSSYAINWVRQAPGQGLEWMGGIIPAFGTTIYAQRFQDRVTITADKSTSTAYMELRSLRSEDTAVYYCARSPPFWSDYSRGWFDPWGQGTLVTVSS VL: ETTLTQSPSALSASVGDRVTITCRASQTISGYLNWYQQKPGKAPKLLIYAASSLQSGVPSRFSGSSAGTDFTLSISNLQPEDFATYYCQQSYTTPWTFGQGTKVEIK next?
22.4

Can you check ADI-15619 (antibody, V domains shown, IgG) VH: QVQLVQSGAEAKKPGASVKVSCTASGYTFTNDINWVRQATGQGLEWMGWMNPNNGHTGYGQKFEDRVTLTRDSSRSTAYMELSSLRFEDTAVYYCVYNFWSDSSVSWGRGTLVTVSS VL: QSVVTQPPSVSGAPGQSVAISCTGSSSNIGPAYDVHWYQQTPGAAPKLLIYGDSNRPSGVPDRFSTSKSGTSASLAITGLQAEDEADYYCQSFDSSLRGYVFGTGTKVTVL next?
0.377
